B1: TPR t1 (parent)
chain: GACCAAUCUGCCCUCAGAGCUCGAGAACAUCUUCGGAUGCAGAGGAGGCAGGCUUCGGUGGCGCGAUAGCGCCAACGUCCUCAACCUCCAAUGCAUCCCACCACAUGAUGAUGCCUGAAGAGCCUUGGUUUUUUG

Variants of: B1
Experiment: polymerase ribozyme fitness, log enrichment relative to wild type (log ratio); higher = more active; in vitro selection for triplet polymerase activity
The entries below are paired with their reported polymerase ribozyme fitness (log ratio).
The reply should be a number, written without any unit.

// known answers, use as guide
C22G G42U : -4.63
A26U U54C C72U U133A : -2.18
G39U C70U A103C C114U A119U G120A U130A : -5.71

What value of measured polymerase ribozyme fitness (log ratio) is listed for C22A A43U U106C C114U ? -4.24

What value of measured polymerase ribozyme fitness (log ratio) is listed for U59C U92G C114G U125G ? -4.63

What value of measured polymerase ribozyme fitness (log ratio) is listed for C8G C72U C89A A105U ? -3.93

What value of measured polymerase ribozyme fitness (log ratio) is listed for C11U G44A G52A A118C C123G ? -1.81

What value of measured polymerase ribozyme fitness (log ratio) is listed for C13G G51C C104U G120C ? -4.18

What value of measured polymerase ribozyme fitness (log ratio) is listed for C4U G69A C89U C123G ? -3.15

What value of measured polymerase ribozyme fitness (log ratio) is listed for U32C A90G C97A U130G ? -5.05

What value of measured polymerase ribozyme fitness (log ratio) is listed for A37C G61A C73U ? -0.816

Hey, just so you know, these numbers are from the RNAGym collection of RNA variant scans (doi:10.1073/pnas.2313332121).
